Target: protein polymer Aβ1-42 (Homo sapiens)
Response field label: string, one of t (Ki strictly below 30 nM) or f.

- compound: "CNc1ccc(-c2nc3cc(OC[C@H](O)CF)ccc3o2)cn1 [Compound 30s]"
  classification: "f"
- compound: "CNc1ccc(-c2nc3cc(OC[C@@H](O)CF)ccc3o2)cc1 [Compound 28r]"
  classification: "f"
- compound: "CN(C)c1ccc(-c2nc3cc(OC[C@H](O)CF)ccc3o2)cn1 [Compound 31s]"
  classification: "f"
- compound: "CN(C)c1ccc(-c2nc3ccc(OC[C@@H](O)CF)cc3o2)cc1 [Compound 19r]"
  classification: "t"
- compound: "CN(C)c1ccc(-c2nc3ccc(OC[C@H](O)CF)cc3s2)cc1 [Compound 15s]"
  classification: "t"
- compound: "CNc1ccc(-c2nc3cc(OC[C@@H](O)CF)ccc3o2)cn1 [Compound 30r]"
  classification: "f"
- compound: "CNc1ccc(-c2nc3cc(OC[C@H](O)CF)ccc3o2)cc1 [Compound 28s]"
  classification: "f"
- compound: "CNc1ccc(-c2nc3ccc(OC[C@H](O)CF)cc3s2)cc1 [Compound 14s]"
  classification: "t"
- compound: "CN(C)c1ccc(-c2nc3cc(OC[C@@H](O)CF)ccc3o2)cn1 [Compound 31r]"
  classification: "t"

---

Test: In-vivo biodistribution experiment on normal mice
Design: species or system mice (ICR, male)
Settings: tail vein injection, 1 h
Outcome: true (1) for Bones radioactivity of at least 1 % ID/g; false (0) for anything lower.

- compound: "CN(C)c1ccc(-c2nc3cc(OC[C@@H](O)C[18F])ccc3o2)cc1 [Compound [^18F]29r]"
  classification: "true (1)"
- compound: "CN(C)c1ccc(-c2nc3ccc(OC[C@@H](O)C[18F])cc3s2)cc1 [Compound [^18F]15r]"
  classification: "true (1)"
- compound: "CNc1ccc(-c2nc3cc(OC[C@@H](O)C[18F])ccc3o2)cc1 [Compound [^18F]28r]"
  classification: "true (1)"
- compound: "CN(C)c1ccc(-c2nc3cc(OC[C@H](O)C[18F])ccc3o2)cc1 [Compound [^18F]29s]"
  classification: "true (1)"
- compound: "CN(C)c1ccc(-c2nc3ccc(OC[C@H](O)C[18F])cc3s2)cc1 [Compound [^18F]15s]"
  classification: "true (1)"
- compound: "CNc1ccc(-c2nc3cc(OC[C@H](O)C[18F])ccc3o2)cc1 [Compound [^18F]28s]"
  classification: "false (0)"

---

Target: protein polymer Aβ1-42 (Homo sapiens, UniProt P05067)
Sequence (P05067 672-713 limits assumed): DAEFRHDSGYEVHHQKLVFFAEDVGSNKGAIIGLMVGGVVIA
pKi: −log10 of the molar value.
observed_property: pKi

- compound: "CN(C)c1ccc(-c2nc3ccc(OC[C@@H](O)CF)cc3s2)cc1 [Compound 15r]"
  observed_property: "pKi"
  quantitative_result: 8.49
- compound: "CN(C)c1ccc(-c2nc3cc(OC[C@@H](O)CF)ccc3o2)cc1 [Compound 29r]"
  observed_property: "pKi"
  quantitative_result: 8.12
- compound: "CN(C)c1ccc(-c2nc3cc(OC[C@H](O)CF)ccc3o2)cc1 [Compound 29s]"
  observed_property: "pKi"
  quantitative_result: 7.81
- compound: "CNc1ccc(-c2nc3ccc(OC[C@@H](O)CF)cc3o2)cc1 [Compound 18r]"
  observed_property: "pKi"
  quantitative_result: 6.89
- compound: "CN(C)c1ccc(-c2nc3ccc(OC[C@H](O)CF)cc3s2)cn1 [Compound 17s]"
  observed_property: "pKi"
  quantitative_result: 7.57
- compound: "CNc1ccc(-c2nc3ccc(OC[C@@H](O)CF)cc3s2)cn1 [Compound 16r]"
  observed_property: "pKi"
  quantitative_result: 8.00
- compound: "CNc1ccc(-c2nc3ccc(OC[C@@H](O)CF)cc3s2)cc1 [Compound 14r]"
  observed_property: "pKi"
  quantitative_result: 7.57
- compound: "CNc1ccc(-c2nc3ccc(OC[C@H](O)CF)cc3s2)cn1 [Compound 16s]"
  observed_property: "pKi"
  quantitative_result: 7.34
- compound: "CN(C)c1ccc(-c2nc3ccc(OC[C@H](O)CF)cc3o2)cc1 [Compound 19s]"
  observed_property: "pKi"
  quantitative_result: 7.96
- compound: "CNc1ccc(-c2nc3ccc(OC[C@H](O)CF)cc3o2)cc1 [Compound 18s]"
  observed_property: "pKi"
  quantitative_result: 6.99
- compound: "CN(C)c1ccc(-c2nc3ccc(OC[C@@H](O)CF)cc3s2)cn1 [Compound 17r]"
  observed_property: "pKi"
  quantitative_result: 7.95

---

Collected Bones radioactivity values appear next to each entry.
Assay: In-vivo biodistribution experiment on normal mice
Set-up: species or system mice (ICR, male)
Details: tail vein injection, 30 min

- compound: "CNc1ccc(-c2nc3cc(OC[C@@H](O)C[18F])ccc3o2)cc1 [Compound [^18F]28r]"
  Bones radioactivity: "1.19 ± 0.15 % ID/g"
- compound: "CN(C)c1ccc(-c2nc3cc(OC[C@@H](O)C[18F])ccc3o2)cc1 [Compound [^18F]29r]"
  Bones radioactivity: "1.36 ± 0.41 % ID/g"
- compound: "CN(C)c1ccc(-c2nc3ccc(OC[C@@H](O)C[18F])cc3s2)cc1 [Compound [^18F]15r]"
  Bones radioactivity: "1.42 ± 0.27 % ID/g"
- compound: "CNc1ccc(-c2nc3cc(OC[C@H](O)C[18F])ccc3o2)cc1 [Compound [^18F]28s]"
  Bones radioactivity: "0.52 ± 0.16 % ID/g"
- compound: "CN(C)c1ccc(-c2nc3cc(OC[C@H](O)C[18F])ccc3o2)cc1 [Compound [^18F]29s]"
  Bones radioactivity: "0.85 ± 0.30 % ID/g"
- compound: "CN(C)c1ccc(-c2nc3ccc(OC[C@H](O)C[18F])cc3s2)cc1 [Compound [^18F]15s]"
  Bones radioactivity: "1.45 ± 0.48 % ID/g"

---

Collected Bones radioactivity values appear next to each entry.
Experiment: In-vivo biodistribution experiment on normal mice
Design: species or system mice (ICR, male)
Settings: tail vein injection, 10 min
observed_property: Bones radioactivity (% ID/g)

- compound: "CN(C)c1ccc(-c2nc3ccc(OC[C@@H](O)C[18F])cc3s2)cc1 [Compound [^18F]15r]"
  quantitative_result: 2.31
- compound: "CN(C)c1ccc(-c2nc3cc(OC[C@H](O)C[18F])ccc3o2)cc1 [Compound [^18F]29s]"
  quantitative_result: 0.99
- compound: "CNc1ccc(-c2nc3cc(OC[C@H](O)C[18F])ccc3o2)cc1 [Compound [^18F]28s]"
  quantitative_result: 0.77
- compound: "CN(C)c1ccc(-c2nc3ccc(OC[C@H](O)C[18F])cc3s2)cc1 [Compound [^18F]15s]"
  quantitative_result: 1.82
- compound: "CNc1ccc(-c2nc3cc(OC[C@@H](O)C[18F])ccc3o2)cc1 [Compound [^18F]28r]"
  quantitative_result: 1.79
- compound: "CN(C)c1ccc(-c2nc3cc(OC[C@@H](O)C[18F])ccc3o2)cc1 [Compound [^18F]29r]"
  quantitative_result: 1.24

---

Test: In-vivo biodistribution experiment on normal mice
Set-up: species or system mice (ICR, male)
Settings: tail vein injection, 2 min.
Response field label: string, one of TRUE (Bones radioactivity strictly below 2 % ID/g) or FALSE.

- compound: "CNc1ccc(-c2nc3cc(OC[C@@H](O)C[18F])ccc3o2)cc1 [Compound [^18F]28r]"
  classification: "TRUE"
- compound: "CN(C)c1ccc(-c2nc3ccc(OC[C@@H](O)C[18F])cc3s2)cc1 [Compound [^18F]15r]"
  classification: "FALSE"
- compound: "CNc1ccc(-c2nc3cc(OC[C@H](O)C[18F])ccc3o2)cc1 [Compound [^18F]28s]"
  classification: "TRUE"
- compound: "CN(C)c1ccc(-c2nc3ccc(OC[C@H](O)C[18F])cc3s2)cc1 [Compound [^18F]15s]"
  classification: "FALSE"
- compound: "CN(C)c1ccc(-c2nc3cc(OC[C@@H](O)C[18F])ccc3o2)cc1 [Compound [^18F]29r]"
  classification: "FALSE"
- compound: "CN(C)c1ccc(-c2nc3cc(OC[C@H](O)C[18F])ccc3o2)cc1 [Compound [^18F]29s]"
  classification: "FALSE"
